Experiment: yeast display, Sf9 membrane polyspecificity reagent, FACS + sequencing; frameworks hold sequencing errors
value type: polyreactivity (PSR sort gate)

INSERT INTO results (sequence_chain, value_type, result) VALUES
  ('QVQLVESGGGLVQAGGSLRLSCAASGRIFRSNAMGWYRQAPGKERELVATITSSGGRTYYADSVKGRFTISRDNAKNTVYLQMNSLKPEDTAVYYCNAQQRTRGQKAQWVRDEYWGQGTQVTVSS', 'polyreactivity (PSR sort gate)', 'low polyreactivity'),
  ('QVQLVESGGGLVQAGGSLRLSCAASGRNFYYYAMGWYRQAPGKERELVAGISWSAGSTYYADSVKGRFTISRDNAKNTVYLQMNSLKPEDTAVYYCAARYWQSYRSQVTHSSTLDYWGQGTQVTVSS', 'polyreactivity (PSR sort gate)', 'low polyreactivity'),
  ('QVQIVESGGGLVQAGGSLRLSCAASGRTFNGYAMGWYRQAPGKERELVARITYRGGGTYYADSVKGRFTISRDNAKNTVYLQMNSLKPEDTAVYYCNAVYHSSGRMGYWGQGTQVTLSS', 'polyreactivity (PSR sort gate)', 'high polyreactivity'),
  ('QVQLVESGGGLVQAGGSLRLSCAASGRIFRVYAMGWYRHAPGKERELVAAISGRGGSTTYADSVKGRFTISRDNAKNTVYLQMNSLKPEDTAVYYCNTAYLAKRSGRRRFNYWGHGTQVTVSS', 'polyreactivity (PSR sort gate)', 'low polyreactivity'),
  ('QVQLVESGGGLVQAGGSLRLSCAASGFIFADYAMGWYRQAPGKERELVAAISASGGITYYADSVKGRFTISRDNAKNTVYLQMNSLKPEDTAVYYCNAVTGKWNWRKYDYWGQGTQVTVSS', 'polyreactivity (PSR sort gate)', 'high polyreactivity');

I have this sequence here, "QVQLVESGGGLVQAGGSLRLSCAASGFIFPYNAMGWYRQAPGKERELVAAITYRDGSTYYPDSVKGRFTISRDNANNTVYGQMNSLKPEDTAVYYCAADRYVYWDLYGYWGQGTQVTVSS" , and I need its recorded polyreactivity (PSR sort gate). low polyreactivity

Next entry: "QVQLVESGGGLVQAGGSLRLSCAASGRTFAYNAMGWYRQAPGKERELVAAISRRGGSTFYADSVKGRFTISRDNAKNTVYLQMNSLKPEDTAVYYCARDSYYIGRWLYYWGQGTQVTVSS" high polyreactivity

Data origin, for the record: the nanobody polyreactivity screen of Harvey et al. (2022)
